- Assay info: Cytotoxicity against human Th17 cells up to 96 uM
- Format: cell-based
Parameter: Activity

Use the examples below as a reference point.
{"Compound": "COc1cc(O)c(C(CC(=O)N2CCCC2)c2ccc3c(c2)OCO3)c(OC)c1 (centres undefined)", "Activity": "Non-toxic"}
{"Compound": "COc1cc(O)c(C(CC(=O)N2CCCC(C)C2)c2ccc3c(c2)OCO3)c(OC)c1 (mixture of isomers)", "Activity": "Non-toxic"}
{"Compound": "COc1cccc(O)c1C(CC(=O)N1CCCC(C)C1)c1ccc2c(c1)OCO2 (mixture of isomers)", "Activity": "Non-toxic"}
{"Compound": "COc1cc(O)c(C(CC(=O)N2C[C@@H](C)N[C@@H](C)C2)c2ccc3c(c2)OCO3)c(OC)c1 (some centres undefined)", "Activity": "Non-toxic"}
{"Compound": "COc1cc(O)c(C(CC(=O)N2CCOCC2)c2ccc3c(c2)OCO3)c(OC)c1 (centres undefined)", "Activity": "Non-toxic"}

Please supply Activity for each of the following items, keeping them in order.
1. COc1cccc(C(CC(=O)N2C[C@H](C)C[C@H](C)C2)c2c(O)cc(OC)cc2OC)c1 (some centres undefined)
2. COc1cc(O)c(C(CC(=O)N2CCC(C)CC2)c2ccc3c(c2)OCO3)c(OC)c1 (centres undefined)
3. COc1cc(O)c(C(CC(=O)N2C[C@H](C)C[C@H](C)C2)c2ccc(Cl)cc2)c(OC)c1 (some centres undefined)
4. COc1cc(O)c(C(CC(=O)Nc2ccc(C)cc2)c2ccc3c(c2)OCO3)c(OC)c1 (centres undefined)

1. Non-toxic
2. Non-toxic
3. Non-toxic
4. Non-toxic

Return reported Activity values for all items listed beneath this line.
1. COc1cc(O)c(C(CC(=O)N2CCCC(C)(C)C2)c2ccc3c(c2)OCO3)c(OC)c1 (centres undefined)
2. COc1ccc(C(CC(=O)N2C[C@H](C)C[C@H](C)C2)c2c(O)cc(OC)cc2OC)cc1 (some centres undefined)
3. COc1cc(O)c(C(CC(=O)N2CCCCCC2)c2ccc3c(c2)OCO3)c(OC)c1 (centres undefined)
4. COc1cc(O)c(C(CC(=O)N2CCCCC2)c2ccc3c(c2)OCO3)c(OC)c1 (centres undefined)

Non-toxic
Non-toxic
Non-toxic
Non-toxic
